Listing of recorded Kd by entry.
# assayed_system: T1, hIL-18Rα ECD-Fc fusion protein (human, UniProt Q13478 22-329)
# T1 construct: extracellular domain; captured on Protein A sensor
# T1 sequence (looked up): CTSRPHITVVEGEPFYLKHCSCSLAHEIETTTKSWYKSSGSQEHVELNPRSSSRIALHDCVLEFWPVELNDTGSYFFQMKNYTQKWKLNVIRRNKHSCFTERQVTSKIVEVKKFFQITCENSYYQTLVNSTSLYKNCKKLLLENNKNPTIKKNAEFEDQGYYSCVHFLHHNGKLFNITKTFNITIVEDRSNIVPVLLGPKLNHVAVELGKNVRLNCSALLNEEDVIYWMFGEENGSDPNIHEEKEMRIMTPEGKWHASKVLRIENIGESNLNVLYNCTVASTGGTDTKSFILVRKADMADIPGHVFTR
# test: BLI (Octet RED96), hIL-18Rα ECD-Fc on Protein A sensor

{"columns": ["binder", "Kd / nM"],
 "data": [
  ["IL-18 variant polypeptide M31 (ligand) YFPKLRSKLSVIRNLNDQVLFIDQGNRPLFEDMTDSDCRDNAPRTIFIISMYKHSIHRGMAVTISVKCEKISTLSCENKIISFKEMNPPDIIKDTKSDIIFFQYSVPGHDNKMQFESSSYEGYFLACEKERDLFKLILKKEDELGDRSIMFTVQNED", 54.1],
  ["IL-18 variant polypeptide M20 (ligand) YFPKLRSKLSVIRNLNDQVLFIDQGNRPLFEDMTDSDCRDNAPRTIFIISMYKSSRSRGMAVTISVKCEKISTLSCENKIISFKEMNPPDGIKDTKSDIIFFQSSVPGHDNKMQFESSSYEGYFLACEKERDLFKLILKKEDELGDRSIMFTVQNED", 35.1]
]}
